System: Plasmodium berghei
Experiment: Luciferase/luciferin-expressing antifolate-resistant parasites were used to infect a culture of HepG2 cells that were pre-incubated with compounds. Infected hepatocytes emit light due to the luciferase reaction. Assay results are presented as the percent inhibition of light emission compared to control. […]
Type: functional
Conditions: sporozoite, PBLUC_HILL_SLOPE 3.13, PBLUC_R_SQUARED 0.498, read-out: LUCIFERASE INFECTION ASSAY - IC50
measuredEndpoint: IC50 (µM)
Just the number please, in µM, no unit attached.

Entry Cc1cc(C)n(-c2nc(-c3ccccc3)cc(N3CCCC3)n2)n1 — recorded IC50 = 4.2

* * *

Tested on: Plasmodium berghei
Experiment: Luciferase/luciferin-expressing antifolate-resistant parasites were used to infect a culture of HepG2 cells that were pre-incubated with compounds. Infected hepatocytes emit light due to the luciferase reaction. Assay results are presented as the percent inhibition of light emission compared to control. […]
Type: functional
Details: sporozoite, HEPG2TOX_HILL_SLOPE 4.19, HEPG2TOX_R_SQUARED 0.981, PBLUC_HILL_SLOPE 3.43, PBLUC_R_SQUARED 0.853, read-out: LUCIFERASE INFECTION ASSAY - IC50
measuredEndpoint: IC50 (nM)
Reply numerically in nM, unit not repeated.

// Oc1ccc(-c2cnc3cnc(-c4ccccc4Cl)cn23)cc1 : IC50 value = 2160

* * *

Tested on: Plasmodium berghei
Assay: Luciferase/luciferin-expressing antifolate-resistant parasites were used to infect a culture of HepG2 cells that were pre-incubated with compounds. Infected hepatocytes emit light due to the luciferase reaction. Assay results are presented as the percent inhibition of light emission compared to control. […]
Assay type: functional
Conditions: sporozoite, read-out: LUCIFERASE INFECTION ASSAY - IC90
So basically: is IC90 under 4 µM? Then class 1. Not under? Then class 0.

Reference set (4 entries):
compound | category
CCCN(CC(=O)Nc1scc(-c2ccccc2)c1C(=O)OCC)Cc1nnc(-c2ccco2)o1 | class 0
CC(=O)NCCc1nccn1Cc1ccccc1 | class 0
CC(C)(C)c1ccc(-c2nnc(SCC(=O)N(Cc3ccccc3)c3nc(-c4ccc(Cl)cc4)cs3)n2-c2ccc(Br)cc2)cc1 | class 0
Clc1cccc(-c2cn3c(-c4ccncc4)cnc3cn2)c1 | class 0

Hello, I'm reviewing records and need to know if IC90 of CC1CCc2sc(C(=O)N/N=C/c3sc(N4CCCCC4)nc3-c3cccs3)cc2C1 (configuration not stated) is below 4 µM. Could you check? class 0

Regarding Cc1cccc(C(=O)Nc2nc3ccc(C)cn3c2C(=O)NC2CCCC2)c1 , kindly confirm whether its IC90 is beneath 4 µM. class 0

Regarding O=C(Nc1sc2ccccc2c(=O)c1-c1ccccc1)C1CCCCC1 , kindly confirm whether its IC90 is beneath 4 µM. class 0

In the record for CC1=C(C(=O)OC2CCC(C)CC2)C(c2ccc(C)cc2)NC(=O)N1 (configuration not stated) , is IC90 less than 4 µM? class 0

Determine whether this compound shows IC90 lower than 4 µM (ties excluded): Cc1ccc(-c2ccccc2C(=O)OCC(=O)Nc2ccc(C)c(Cl)c2)cc1 class 0

Hi there! Is IC90 for COc1ccc(-c2cnc3cnc(-c4ccc(OC(F)(F)F)cc4)cn23)cn1 below 4 µM, do you know? class 0

Say whether its IC90 is strictly beneath 4 µM. Entry: CCCCNC(=O)c1c(NC(=O)c2ccc(OC)cc2)nc2c(C)cccn12 class 0

Does CCc1cc2c(=O)n(NC(=S)Nc3ccc(OC)cc3)cnc2s1 have IC90 strictly under 4 µM? class 0

Hi there! Is IC90 for COc1ccc(CSc2nnc(CSc3cccs3)n2C)cc1 below 4 µM, do you know? class 0

In the record for Cc1nc2c3ccccc3nc(SCC(=O)Nc3ccccc3)n2n1 , is IC90 less than 4 µM? class 1

* * *

Tested on: Plasmodium berghei
Experiment: Luciferase/luciferin-expressing antifolate-resistant parasites were used to infect a culture of HepG2 cells that were pre-incubated with compounds. Infected hepatocytes emit light due to the luciferase reaction. Assay results are presented as the percent inhibition of light emission compared to control. […]
Assay type: functional
Conditions: sporozoite, HEPG2TOX_HILL_SLOPE 2.05, HEPG2TOX_R_SQUARED 0.718, PBLUC_HILL_SLOPE 2.04, PBLUC_R_SQUARED 0.622, read-out: LUCIFERASE INFECTION ASSAY - IC50
measuredEndpoint: pIC50
Scale note: pIC50 = -log10(concentration in M).

Noted pIC50 for COc1ccc(OC)c(NC(=O)c2cc(-c3cc(Cl)ccc3O)[nH]n2)c1 , tested on Plasmodium berghei: 5.40

* * *

Test system: Plasmodium berghei
Assay: Luciferase/luciferin-expressing antifolate-resistant parasites were used to infect a culture of HepG2 cells that were pre-incubated with compounds. Infected hepatocytes emit light due to the luciferase reaction. Assay results are presented as the percent inhibition of light emission compared to control. […]
Assay type: functional
Settings: sporozoite, HEPG2TOX_HILL_SLOPE 2.16, HEPG2TOX_R_SQUARED 0.752, PBLUC_HILL_SLOPE 1.94, PBLUC_R_SQUARED 0.563, read-out: LUCIFERASE INFECTION ASSAY - IC50
measuredEndpoint: pIC50
The quantity pIC50 is defined as the negative base-10 logarithm of the molar concentration.

Memo: Cc1ccc(-c2cnc3ccc(NC4CCOCC4)nn23)cc1C , reported pIC50: 5.84

* * *

Test system: Plasmodium berghei
Experiment: Luciferase/luciferin-expressing antifolate-resistant parasites were used to infect a culture of HepG2 cells that were pre-incubated with compounds. Infected hepatocytes emit light due to the luciferase reaction. Assay results are presented as the percent inhibition of light emission compared to control. […]
Format: functional
Conditions: sporozoite, PBLUC_HILL_SLOPE 1.24, PBLUC_R_SQUARED 0.639, read-out: LUCIFERASE INFECTION ASSAY - IC50
Parameter: pIC50. Scope: all listed entries.
Worth noting: pIC50 values are minus log10 of concentrations stated in mol/L.

compoundStructure | measValue
c1ccc(-c2nn(-c3ccccc3)cc2CSc2nncs2)cc1 | 5.24

# input for lookup
Query COc1ccc(-c2nc(C(=O)Nc3ccccc3N3CCN(C)CC3)cs2)cc1OC yields pIC50 of 5.63

* * *

System: Plasmodium berghei
Experiment: Luciferase/luciferin-expressing antifolate-resistant parasites were used to infect a culture of HepG2 cells that were pre-incubated with compounds. Infected hepatocytes emit light due to the luciferase reaction. Assay results are presented as the percent inhibition of light emission compared to control. […]
Format: functional
Conditions: sporozoite, HEPG2TOX_HILL_SLOPE 3.11, HEPG2TOX_R_SQUARED 0.652, PBLUC_HILL_SLOPE 1.69, PBLUC_R_SQUARED 0.756, read-out: LUCIFERASE INFECTION ASSAY - IC50
measuredEndpoint: pIC50
Friendly reminder that pIC50 comes from taking -log10 of the concentration in mol/L.

pIC50 reading for COc1cc(OC)cc(-c2cc3c(Nc4ccc(OC)c(OC)c4)nccc3[nH]2)c1 : 5.73

* * *

Tested on: Plasmodium berghei
Experiment: Luciferase/luciferin-expressing antifolate-resistant parasites were used to infect a culture of HepG2 cells that were pre-incubated with compounds. Infected hepatocytes emit light due to the luciferase reaction. Assay results are presented as the percent inhibition of light emission compared to control. […]
Type: functional
Conditions: sporozoite, PBLUC_HILL_SLOPE 16.2, PBLUC_R_SQUARED 0.0753, read-out: LUCIFERASE INFECTION ASSAY - IC50
measuredEndpoint: IC50
Remember to quote the unit after the number.

Data point: Cc1onc(-c2ccc(Cl)cc2Cl)c1-c1csc(Nc2c(Cl)cccc2Cl)n1 ; IC50 = 6.45 µM

* * *

System: Plasmodium berghei
Assay: Luciferase/luciferin-expressing antifolate-resistant parasites were used to infect a culture of HepG2 cells that were pre-incubated with compounds. Infected hepatocytes emit light due to the luciferase reaction. Assay results are presented as the percent inhibition of light emission compared to control. […]
Type: functional
Details: sporozoite, read-out: LUCIFERASE INFECTION ASSAY - IC90
measuredEndpoint: IC90 (µM)
Expressed in µM, but write only the number.

compound | IC90 [µM]
CCCn1c(-c2cccs2)nc2c(c(=O)c3ccccc3n2C)c1=O | 3.69
Cc1oc(C(C)(C)C)cc1-c1cc(NC(=O)Nc2ccc(OC(F)(F)F)cc2)n(-c2cc(C(F)(F)F)cc(C(F)(F)F)c2)n1 | 4.49
CCOc1ccccc1NC(=O)c1nc(-c2ccccc2)n(-c2ccccc2)n1 | 3.4

The compound listed as CCC(C)c1ccc(-n2c(SCC(=O)N3c4ccccc4CC3C)nc3ccccc3c2=O)cc1 (stereo not given) shows IC90 equal to 9.46

* * *

Tested on: Plasmodium berghei
Assay: Luciferase/luciferin-expressing antifolate-resistant parasites were used to infect a culture of HepG2 cells that were pre-incubated with compounds. Infected hepatocytes emit light due to the luciferase reaction. Assay results are presented as the percent inhibition of light emission compared to control. […]
Format: functional
Conditions: sporozoite, PBLUC_HILL_SLOPE 19.3, PBLUC_R_SQUARED 0.0642, read-out: LUCIFERASE INFECTION ASSAY - IC50
measuredEndpoint: IC50 (µM)
A number alone suffices; assume µM.

For CCCCOc1ccc(Nc2nc(C(N)Cc3ccc(F)cc3)cs2)nn1 (stereo unspecified) the compound record lists IC50 as 8.34

These data points were gathered from ChEMBL document CHEMBL4483862.
